# pKd per entry
Molecular target: T1, XPF-ΔPIP (Δ6 XPF) (Sulfolobus solfataricus, UniProt Q7LXL5 1-227)
T1 sequence: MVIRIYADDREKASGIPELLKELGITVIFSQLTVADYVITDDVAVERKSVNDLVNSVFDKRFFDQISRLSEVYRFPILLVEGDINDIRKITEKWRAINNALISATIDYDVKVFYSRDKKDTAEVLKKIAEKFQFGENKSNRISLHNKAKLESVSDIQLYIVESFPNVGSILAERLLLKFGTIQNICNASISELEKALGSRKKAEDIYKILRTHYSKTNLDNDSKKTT
Assay: FRET
pKd: −log10 of the molar value.

[
  {
    "Binder": "Flap-23 (structured_DNA, 3' Cy3 on B strand; internal fluorescein-dT at T10 of C strand) DNA 1: AGCCCGACAGCAGTCAGAGCTTGCTAGGACGGACGGT DNA 2: ACCGTCCGTCCTAGCAAGCATTTTTTT DNA 3: TCTGACTGCTGTCGGGCT",
    "pKd": 5.74
  },
  {
    "Binder": "Flap-12 (structured_DNA, internal fluorescein-dT at T9 of B strand; 3' amino modifier on B strand) DNA 1: AGCCCGACAGCAGTCAGAGCTTGCTAGGACGGACGGT DNA 2: ACCGTCCGTCCTAGCAAGCATTTTTTT DNA 3: TCTGACTGCTGTCGGGCT",
    "pKd": 5.80
  }
]
